system: SF-268 CNS; test: NCI tumour cell line growth inhibition, 48 h
property-name: TGI

* O=C(Nc1ccc(Cl)cc1)c1cc(S(=O)(=O)Nc2nnc3c(Cl)cc(C(F)(F)F)cn23)c(S)cc1Cl | > 100 µM
* COc1ccccc1CNCCCN1C(=O)c2ccc3c4c(ccc(c24)C1=O)C(=O)N(CCCN)C3=O | 3.94 µM
* CCOC(=O)c1c(NC(=S)Nc2ccccc2)sc2c1CCOC2 | > 100 µM
* COC(=O)CCC(NC(=O)OC(C)(C)C)C(=O)NC(Cc1ccc(NC(=O)CCCC(C)=O)cc1)C(=O)NC(CCC(=O)OC)C(=O)OC (centres undefined) | > 100 µM
